Protein target, amino acids: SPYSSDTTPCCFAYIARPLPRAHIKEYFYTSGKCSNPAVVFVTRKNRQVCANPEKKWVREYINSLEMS
measure.name: Kd (µM)

# count of solved cases: 4
> print(dat)
                          compound.smiles  recorded.value
1        Nc1cc(C(=O)O)c(O)c(S(=O)(=O)O)c1              35
2                         O=C(O)c1ccccc1O             350
3                     O=S(=O)(O)c1ccccc1O              50
4  CC(=O)Nc1cc(C(=O)O)c(O)c(S(=O)(=O)O)c1              20

1. O=C(O)c1c(O)ccc(S(=O)(=O)O)c1O
2. CC(=O)Nc1ccc(S(=O)(=O)Nc2cc(C(=O)O)c(O)c(S(=O)(=O)O)c2)cc1
Problem: Given the entries 1 and 2 , determine which has the lower reported Kd. Lab note: record the label of whichever item you select.
Solution: 1
(1: 18 µM, 2: 40 µM)
